Target: T1, huIL1RAP ECD recombinant protein (human, UniProt Q9NPH3 21-367)
T1 construct: also called recombinant human IL1RAP-ECD; recombinant human IL1RAP; not shown: C-terminal histidine tag for purification
Assay: Octet BLI, antibody on Protein A biosensor, recombinant huIL1RAP ECD
Method: Affinity: The affinity of antibodies to various recombinant IL1RAP protein was determined on an Octet Red™ instrument. After loading reagents into a 96-well plate, the Octet Red™ with Protein A-conjugated biosensors was programmed as follows: 30 seconds for baseline #1; 120 seconds to immobilize the antibody; 30 seconds for baseline #2; 300 seconds for association of antibody to recombinant IL1RAP; and 300-600 seconds for dissociation of recombinant IL1RAP from the antibody.
What pKd was measured for each of the following?
Answers are plain numbers, as −log10 of the molar value.

Give measured pKd for every item shown.
1. 10C8_15A1 (antibody, V domains shown) VH: QVQLVESGGGVVQPGRSLRISCAASGFTFRSYGMHWVRQAPGKGLEWVAIIWHDESYKYYVDSVKGRFTISRDNSKNTLYLQMNSLRAEDTAVYYCARGDYYGSGSYYDAFDIWGQGTMVTVSS VL: DIQMTQSPSSLSASVGDRVIITCRASQGISNYLAWFQQKPGKCPNLLIYAASTLRSGVPSRFSGSGSGTDFTLTISSLQPEDVATYYCQKYNSAPYTFGQGTKVEIK
2. 31F9_21A1 (antibody, V domains shown, Recombinant human antibody) VH: QVQLVESGGGMVQPGRSLRLSCTASGFTFSSHGMHWVRQAPGKGLEWVAVIWFDGSNEYYVDSVKGRFTISRDNSKNTLYLQMNSLRAEDTAVYYCARENVYGSGWFFDYWGQGTLVTVSS VL: EIVMTQSPATLSVSPGERASLSCRASQSVGSNLAWYQQKPGQAPRLLIFGASTRATGIPARFSGSRSGTEFTLTISSLQSEDFALYYCQQYNNWPPWTFGQGTKVEIK
3. 36A12_21C1 (antibody, V domains shown, Recombinant human antibody) VH: EVQLVESGGGLVQPGGSLRLSCAASGFTLSFYWMTWVRQAPGKGLEWVANIKQDGNEKNYVDSVKGRFTISKDNAKKSVFLQMNSLRAEDTAVYYCAREGYFGSGYFDYWGQGTLVTVSS VL: DIQMTQSPSTLSASVGDRVTITCRASQSINSWLAWYQQKPGKAPKLLIYKASTLESGVPSRFSGSGSGTEFTLTISSLQPDDFAPYYCQHYNSYPHTFGQGTKVEIK

output:
7.52
8.70
7.62
